measurement_target: Escherichia coli ParC/ParE tetramer protein (Escherichia coli, UniProt P0AFI2+P20083)
Sequence (P20083 whole entry): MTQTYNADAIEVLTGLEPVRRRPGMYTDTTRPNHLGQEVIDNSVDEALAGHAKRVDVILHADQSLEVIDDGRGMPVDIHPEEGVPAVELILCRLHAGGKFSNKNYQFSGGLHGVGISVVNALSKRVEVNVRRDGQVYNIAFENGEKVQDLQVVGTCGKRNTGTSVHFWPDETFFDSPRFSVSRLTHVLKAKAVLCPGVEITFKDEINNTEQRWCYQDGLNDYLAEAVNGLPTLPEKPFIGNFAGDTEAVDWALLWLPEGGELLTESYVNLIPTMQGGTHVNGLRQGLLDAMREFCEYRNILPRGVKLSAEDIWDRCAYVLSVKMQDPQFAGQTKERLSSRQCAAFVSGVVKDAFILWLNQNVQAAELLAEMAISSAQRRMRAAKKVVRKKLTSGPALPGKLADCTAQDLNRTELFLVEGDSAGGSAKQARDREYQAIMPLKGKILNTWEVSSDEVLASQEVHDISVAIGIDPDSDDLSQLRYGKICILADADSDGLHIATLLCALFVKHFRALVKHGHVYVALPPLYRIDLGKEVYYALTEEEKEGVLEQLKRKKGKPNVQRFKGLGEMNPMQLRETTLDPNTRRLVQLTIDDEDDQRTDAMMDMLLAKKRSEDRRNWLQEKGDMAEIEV
Sequence (P0AFI2 whole entry): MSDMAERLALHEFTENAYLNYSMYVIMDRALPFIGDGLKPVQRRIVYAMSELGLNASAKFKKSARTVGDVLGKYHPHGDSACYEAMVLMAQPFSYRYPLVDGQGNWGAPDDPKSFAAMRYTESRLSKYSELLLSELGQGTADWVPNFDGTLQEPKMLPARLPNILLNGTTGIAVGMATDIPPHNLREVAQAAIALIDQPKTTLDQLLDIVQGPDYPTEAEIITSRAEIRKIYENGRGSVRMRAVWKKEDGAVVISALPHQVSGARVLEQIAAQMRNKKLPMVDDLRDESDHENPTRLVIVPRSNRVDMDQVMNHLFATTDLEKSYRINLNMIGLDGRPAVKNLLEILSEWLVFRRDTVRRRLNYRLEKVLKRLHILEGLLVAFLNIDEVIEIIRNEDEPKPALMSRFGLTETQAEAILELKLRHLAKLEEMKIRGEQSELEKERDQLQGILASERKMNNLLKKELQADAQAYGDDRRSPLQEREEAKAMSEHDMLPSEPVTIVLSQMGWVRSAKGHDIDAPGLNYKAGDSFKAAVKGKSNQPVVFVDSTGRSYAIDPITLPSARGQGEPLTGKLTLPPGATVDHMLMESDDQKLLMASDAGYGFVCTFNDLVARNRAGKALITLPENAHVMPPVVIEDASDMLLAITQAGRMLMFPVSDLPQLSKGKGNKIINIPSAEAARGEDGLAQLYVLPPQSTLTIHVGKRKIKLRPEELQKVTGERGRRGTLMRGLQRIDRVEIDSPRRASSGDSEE
assay_notes: E. coli ParC/ParE ATPase inhibition assay (malachite green phosphate detection)
condition_details: ATPase activity of ParE subunit of reconstituted ParC/ParE tetramer; 0.16 mM ATP; 24 hours at room temperature
For each record, check the reported IC50: if it is below 0.006 µM write YES, else write NO.

As a guide, the following entries are already answered.
molecule	measurement_target	class_assignment
N#Cc1ccc2ccc(=O)n(CC(N)[C@H]3CC[C@H](NCc4ccc5c(n4)NC(=O)CO5)CC3)c2c1 (single isomer, unassigned; enantiomer b) [Example 4(b)]	Escherichia coli ParC/ParE tetramer protein (Escherichia coli, UniProt P0AFI2+P20083)	YES
COc1cnc2ccc(=O)n(CC(N)[C@H]3CC[C@H](NCc4ccc5c(n4)NC(=O)CO5)CC3)c2c1 (single isomer, unassigned; enantiomer a) [Example 1(a)]	Escherichia coli ParC/ParE tetramer protein (Escherichia coli, UniProt P0AFI2+P20083)	YES
COc1cnc2ccc(=O)n(CC(N)[C@H]3CC[C@H](NCc4ccc5c(n4)NC(=O)CO5)CC3)c2c1 (single isomer, unassigned; enantiomer b) [Example 1(b)]	Escherichia coli ParC/ParE tetramer protein (Escherichia coli, UniProt P0AFI2+P20083)	NO
COc1cnc2ccc(=O)n(CC(N)C3CCC(NCc4ccc5c(n4)NC(=O)CO5)CC3)c2c1 (racemic)	Escherichia coli ParC/ParE tetramer protein (Escherichia coli, UniProt P0AFI2+P20083)	NO
COc1ccc2ncc(=O)n(CC(N)[C@H]3CC[C@H](NCc4ncc5c(n4)NC(=O)CO5)CC3)c2c1 (single isomer, unassigned; enantiomer a) [Example 3(a)]	Escherichia coli ParC/ParE tetramer protein (Escherichia coli, UniProt P0AFI2+P20083)	NO

Report whether reported IC50 is lower than 0.006 µM (strictly) for N#Cc1ccc2ccc(=O)n(CC(N)[C@H]3CC[C@H](NCc4ccc5c(n4)NC(=O)CO5)CC3)c2c1 (single isomer, unassigned; enantiomer a) [Example 4(a)]
NO

Report whether reported IC50 is lower than 0.006 µM (strictly) for COc1ccc2ncc(=O)n(CC(N)[C@H]3CC[C@H](NCc4ncc5c(n4)NC(=O)CO5)CC3)c2c1 (single isomer, unassigned; enantiomer b) [Example 3(b)]
YES

* * *

Recorded pIC50 by entry
measurement_target: Escherichia coli ParC/ParE tetramer protein (Escherichia coli, UniProt P0AFI2+P20083)
assay_notes: E. coli ParC/ParE ATPase inhibition assay (malachite green phosphate detection)
Type: biochemical
condition_details: ATPase activity of ParE subunit of reconstituted ParC/ParE tetramer; 0.16 mM ATP; 24 hours at room temperature
Would you please state pIC50, meaning minus log10 of the concentration in mol/L, as a bare number?

Let me know recorded pIC50 for N#Cc1ccc2ccc(=O)n(CC(N)[C@H]3CC[C@H](NCc4ccc5c(n4)NC(=O)CS5)CC3)c2c1 (single isomer, unassigned; enantiomer b) , thanks.
8.70

Let me know recorded pIC50 for Cc1cc(=O)n(CC(N)C2CCC(NCc3ccc4c(n3)NC(=O)CO4)CC2)c2cc(F)ccc12 (single isomer, unassigned; enantiomer a) , thanks.
8.05

Let me know recorded pIC50 for N#Cc1ccc2ccc(=O)n(CC(N)C3CCC(NCc4ccc5c(n4)NC(=O)CO5)CC3)c2c1 (racemic) , thanks.
8.05

Let me know recorded pIC50 for COc1ccc2ncc(=O)n(CC(N)[C@H]3CC[C@H](NCc4ccc5c(n4)NC(=O)CO5)CC3)c2c1 (single isomer, unassigned; enantiomer a) [Example 2(a)] , thanks.
7.80

Let me know recorded pIC50 for NC(Cn1c(=O)cnc2ccc(F)cc21)C1CCC(NCc2ncc3c(n2)NC(=O)CO3)CC1 (single isomer, unassigned) , thanks.
7.82

Let me know recorded pIC50 for COc1cnc2ccc(=O)n(CC(N)C3CCC(NCc4ncc5c(n4)NC(=O)CO5)CC3)c2c1 (racemic) , thanks.
7.77
